From: patent US20240228512A1

# Tested on: H1975 cells
# assay_protocol: H1975 CTG proliferation assay
# Type: cell-based
# assay_context: Homo sapiens, NCI-H1975, H1975, CTG
attribute_measured: IC50 (nM)

Some compounds with recorded IC50:
[
  {
    "compound": "C#Cc1cccc2cc(N)cc(-c3nc4c5c(nc(OC[C@@]67CCCN6C[C@H](F)C7)nc5c3F)N([C@H](C)c3nccnc3N)CCO4)c12",
    "IC50 (nM)": 2.59
  },
  {
    "compound": "Cc1c(F)c(N)c(F)c(-c2nc3c4c(nc(OC[C@@]56CCCN5C[C@H](F)C6)nc4c2Cl)N([C@H](C)c2cccnc2N)CCO3)c1C(F)(F)F (atropisomer, axis not shown; (aS)) [Example 629a]",
    "IC50 (nM)": 176
  },
  {
    "compound": "Cc1cc(N)nc(-c2nc3c4c(nc(OC[C@@]56CCCN5C[C@H](F)C6)nc4c2Cl)N([C@H](C)c2cccnc2N)CCO3)c1C(F)(F)F",
    "IC50 (nM)": 48.4
  }
]

[1] Cc1c(F)c(N)cc(-c2nc3c4c(nc(OC[C@@H]5CC[C@H]6COCCN65)nc4c2F)N([C@H](C)c2cccnc2N)CCO3)c1C(F)(F)F
[2] C[C@H](c1cccnc1N)N1CCOc2nc(-c3c(C(F)(F)F)ccc(N)c3Cl)c(F)c3nc(OC[C@@]45CCCN4C[C@H](F)C5)nc1c23 (atropisomer, axis not shown; (aS)) [Example 622a]
query: Could you kindly indicate whether 1 or 2 has the higher IC50 value? Kindly state the label of the option you pick.
result: 2
